- System: A549
- Method Summary: cells
- Experimental Setup: Homo sapiens, A549, 48 h
Quick reference: pIC50 of the listed items.
As a rule, pIC50 stands for the negative log10 of the concentration, concentration in M.

Here are 6 compounds together with their reported answers.
- Compound: "COc1ccc(C(=O)c2cc(OC)c(OC)c([Se]C)c2)cc1F"
  pIC50: 7.48
- Compound: "COc1ccc(C(=O)c2cc(OC)c(OC)c([Se]C)c2)cc1Cl"
  pIC50: 6.02
- Compound: "COc1ccc(C(=O)c2cc(OC)c(OC)c([Se]C)c2)cc1OC"
  pIC50: 6.55
- Compound: "COc1ccc(C(=O)c2cc(OC)c(OC)c([Se]C)c2)cc1C"
  pIC50: 5.76
- Compound: "C=C(c1ccc(OC)cc1)c1cc(OC)c(OC)c([Se]C)c1"
  pIC50: 7.14
- Compound: "C=C(c1cc(OC)c(OC)c(OC)c1)c1cc(OC)c(OC)c([Se]C)c1"
  pIC50: 6.33

input: Recorded pIC50 for COc1ccc(C(=O)c2cc(OC)c(OC)c([Se]C)c2)cc1 , please?
output: 7.51

input: Repeat with C=C(c1ccc(OC)c(Cl)c1)c1cc(OC)c(OC)c([Se]C)c1
output: 6.71

input: What do we get for COc1ccc(C(=O)c2cc(OC)c(OC)c(OC)c2)cc1O [PHENSTATIN] ?
output: 6.75

input: Thanks! And C=C(c1ccc(OC)c(C)c1)c1cc(OC)c(OC)c([Se]C)c1 ?
output: 6.85

---

- System: MDA-MB-231
- Method Summary: Antiproliferative activity against human MDA-MB-231 cells after 48 hrs by MTT assay
- Experimental Setup: MDA-MB-231, 48 h
Let's look at some compounds and their measured pIC50.
Give only the number. pIC50 is defined as minus log10 of concentration in molar units.

input: For C=C(c1ccc([Se]C)cc1)c1cc(OC)c(OC)c(OC)c1 , what is its reported pIC50?
output: 6.75

input: Param item: COc1ccc(C(=O)c2cc(OC)c(OC)c([Se]C)c2)cc1O
output: 7.62

input: What about C=C(c1ccc(OC)c(O)c1)c1cc(OC)c(OC)c(OC)c1 ?
output: 8.07

input: Consider next the compound C=C(c1ccc(OC)c(Br)c1)c1cc(OC)c(OC)c([Se]C)c1 in the same way.
output: 6.18

input: One more compound: COc1ccc(C(=O)c2cc(OC)c(OC)c([Se]C)c2)cc1Cl
output: 6.06

input: What do we get for C=C(c1ccc(OC)c(C)c1)c1cc(OC)c(OC)c([Se]C)c1 ?
output: 6.22

input: Cool, now C=C(c1ccc(OC)c(O)c1)c1cc(OC)c(OC)c([Se]C)c1
output: 8.66

input: Field entry: C=C(c1cc(OC)c(OC)c(OC)c1)c1cc(OC)c(OC)c([Se]C)c1
output: 5.48

input: What do you get for C=C(c1ccc(OC)c(OC)c1)c1cc(OC)c(OC)c([Se]C)c1 ?
output: 6.46

input: And C=C(c1ccc(OC)c(Cl)c1)c1cc(OC)c(OC)c([Se]C)c1 ?
output: 7.08

input: Same lookup for COc1ccc(C(=O)c2cc(OC)c(OC)c([Se]C)c2)cc1 , please.
output: 7.24

input: Try this compound next: COc1cc(C(=O)c2ccc(OC)c(OC)c2OC)cc([Se]C)c1OC
output: 5.37

input: Would you kindly repeat that for C=C(c1cc(OC)c(OC)c([Se]C)c1)c1ccc(OC)c(OC)c1OC ?
output: 5.42

input: Same question, C=C(c1ccc(OC)cc1)c1cc(OC)c(OC)c([Se]C)c1 this time
output: 7.02

input: Next compound: COc1ccc(C(=O)c2cc(OC)c(OC)c([Se]C)c2)cc1Br
output: 6.36

input: Would you mind doing COc1ccc(C(=O)c2cc(OC)c(OC)c([Se]C)c2)cc1OC as well?
output: 5.99

input: Further, for COc1cc(C(=O)c2ccc([Se]C)cc2)cc(OC)c1OC ?
output: 7.19

input: // query: COc1ccc(C(=O)c2cc(OC)c(OC)c([Se]C)c2)cc1F
output: 7.47

input: What do you get for COc1ccc(C(=O)c2cc(OC)c(OC)c([Se]C)c2)cc1C ?
output: 6.00

input: Okay, and C=C(c1ccc(OC)c(F)c1)c1cc(OC)c(OC)c([Se]C)c1 ?
output: 7.62

input: Proceed to COc1cc(C(=O)c2cc(OC)c(OC)c([Se]C)c2)cc(OC)c1OC
output: 6.13

input: What would you report for COc1ccc(C(=O)c2cc(OC)c(OC)c(OC)c2)cc1O [PHENSTATIN] ?
output: 7.21

The values you see were collected from ChEMBL document CHEMBL4038345.
